- tested.system: human αVβ6 (Homo sapiens, UniProt P06756+P18564)
- Sequence (P06756 31-992 limits assumed): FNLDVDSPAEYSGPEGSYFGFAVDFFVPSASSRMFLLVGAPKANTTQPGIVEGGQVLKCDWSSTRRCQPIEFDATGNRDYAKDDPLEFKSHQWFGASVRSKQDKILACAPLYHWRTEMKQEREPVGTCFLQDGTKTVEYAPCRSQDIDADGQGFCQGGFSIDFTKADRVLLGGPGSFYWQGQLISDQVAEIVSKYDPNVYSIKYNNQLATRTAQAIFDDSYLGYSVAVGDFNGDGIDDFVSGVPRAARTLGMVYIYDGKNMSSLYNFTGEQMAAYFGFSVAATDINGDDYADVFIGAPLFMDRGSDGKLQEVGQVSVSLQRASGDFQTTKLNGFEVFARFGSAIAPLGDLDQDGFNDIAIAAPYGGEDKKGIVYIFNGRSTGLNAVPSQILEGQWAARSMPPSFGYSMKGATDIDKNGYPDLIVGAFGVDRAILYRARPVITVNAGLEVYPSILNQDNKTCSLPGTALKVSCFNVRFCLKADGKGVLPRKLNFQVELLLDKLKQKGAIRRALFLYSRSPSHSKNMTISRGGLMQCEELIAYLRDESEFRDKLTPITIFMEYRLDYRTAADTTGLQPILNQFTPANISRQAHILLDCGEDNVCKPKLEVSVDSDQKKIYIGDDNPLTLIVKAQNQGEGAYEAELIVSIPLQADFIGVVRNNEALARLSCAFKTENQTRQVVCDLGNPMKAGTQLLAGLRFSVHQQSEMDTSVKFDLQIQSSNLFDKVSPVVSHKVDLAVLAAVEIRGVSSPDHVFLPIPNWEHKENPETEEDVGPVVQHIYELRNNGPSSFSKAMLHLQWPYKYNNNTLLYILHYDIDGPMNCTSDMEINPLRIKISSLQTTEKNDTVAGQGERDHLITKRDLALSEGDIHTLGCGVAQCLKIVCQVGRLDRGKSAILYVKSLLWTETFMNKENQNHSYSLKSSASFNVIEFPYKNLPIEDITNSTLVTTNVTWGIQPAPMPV
- Sequence (P18564 22-707 limits assumed): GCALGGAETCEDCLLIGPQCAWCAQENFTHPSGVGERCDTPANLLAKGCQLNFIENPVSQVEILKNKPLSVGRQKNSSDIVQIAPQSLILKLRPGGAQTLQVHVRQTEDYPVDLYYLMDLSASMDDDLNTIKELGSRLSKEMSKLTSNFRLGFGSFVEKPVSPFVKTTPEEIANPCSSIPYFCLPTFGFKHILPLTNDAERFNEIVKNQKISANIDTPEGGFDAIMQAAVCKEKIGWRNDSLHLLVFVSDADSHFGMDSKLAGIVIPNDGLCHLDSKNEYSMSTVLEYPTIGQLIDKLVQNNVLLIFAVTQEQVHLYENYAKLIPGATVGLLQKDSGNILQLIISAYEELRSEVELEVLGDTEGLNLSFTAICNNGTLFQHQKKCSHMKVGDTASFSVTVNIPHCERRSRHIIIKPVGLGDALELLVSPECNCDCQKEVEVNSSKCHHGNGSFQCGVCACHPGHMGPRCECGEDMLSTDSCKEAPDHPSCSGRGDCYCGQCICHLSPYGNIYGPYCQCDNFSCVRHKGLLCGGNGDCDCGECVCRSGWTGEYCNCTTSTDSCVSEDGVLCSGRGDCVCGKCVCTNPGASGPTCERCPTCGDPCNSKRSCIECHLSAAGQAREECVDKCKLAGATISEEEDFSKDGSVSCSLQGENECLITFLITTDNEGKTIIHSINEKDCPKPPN
- assay.notes: human αVβ6 HTRF binding assay
- condition.details: recombinant human αVβ6 integrin, FITC-conjugated fibronectin
assay.endpoint: IC50 (nM)
Dear colleague, please return just the value in nM, with no unit written.

Record excerpt, results attached:
INSERT INTO measurements (compound, val) VALUES
  ('Cc1ncc(C(CC(=O)O)n2nccc2CCCc2ccc3c(n2)NCCCC3)cn1 (racemic)', 410),
  ('CN(C)c1ccc(C(CC(=O)O)c2nc(CCCc3ccc4c(n3)NCCC4)cs2)cn1 (single isomer, unassigned) [Example 133]', 86),
  ('COc1ccc(C(CC(=O)O)c2nc(CCCCc3ccc4c(n3)NCCC4)c(C)o2)cc1F (stereo not shown) [Example 181]', 1060);

Attention now turns to another entry.
Look up IC50 of O=C(O)CC(c1cnc2ccccc2c1)n1ncc(CCCc2ccc3c(n2)NCCC3)n1 (single isomer, unassigned) [Example 174] and report it. 170
